# Study Target: AURKA (Homo sapiens)
# Construct: made in house
# Sequence (O14965 whole entry, species assumed): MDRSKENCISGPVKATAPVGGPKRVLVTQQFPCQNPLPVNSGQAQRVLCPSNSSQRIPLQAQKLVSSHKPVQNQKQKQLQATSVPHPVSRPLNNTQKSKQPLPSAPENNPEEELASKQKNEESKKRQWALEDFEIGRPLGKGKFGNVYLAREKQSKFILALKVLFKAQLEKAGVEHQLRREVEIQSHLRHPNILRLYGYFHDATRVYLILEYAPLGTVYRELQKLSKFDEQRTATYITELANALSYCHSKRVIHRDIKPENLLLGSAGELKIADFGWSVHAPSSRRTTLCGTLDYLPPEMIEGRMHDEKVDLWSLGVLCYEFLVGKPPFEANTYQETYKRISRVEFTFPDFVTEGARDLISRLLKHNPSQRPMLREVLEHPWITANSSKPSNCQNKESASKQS
# Procedure Summary: Liability panel screening by DSF: AURKA
# Type: binding
# Study Conditions: DSF, 20 µM, n=2; read-out: Mean ΔTM AURKA
Property Measured: ΔTm at 20 µM (°C)
Answer with a number only, understood to be in °C.

# count of solved cases: 5
Compound: COc1ccc2c(c1)OC(C)(C)C(c1ccccc1)C2c1ccc(OCCN2CCCC2)cc1 (stereo not drawn)
Study Target: AURKA (Homo sapiens)
ΔTm at 20 µM [°C]: 0.51

Compound: COc1cc(/C=C(\C#N)C(=O)Nc2nnc(C(F)(F)F)s2)ccc1OCc1ccc(C(F)(F)F)cc1C(F)(F)F
Study Target: AURKA (Homo sapiens)
ΔTm at 20 µM [°C]: -0.27

Compound: COC(=O)[C@@H]1CC2=CC(=O)CC[C@]2(C)[C@@]23O[C@@H]2C[C@@]2(C)[C@@H](CC[C@@]24CCC(=O)O4)[C@H]13
Study Target: AURKA (Homo sapiens)
ΔTm at 20 µM [°C]: -0.81

Compound: N#Cc1ccc(N2N=C3c4ccc(C(=O)O)cc4CC[C@@H]3[C@@H]2C2CCCC2)cc1Cl
Study Target: AURKA (Homo sapiens)
ΔTm at 20 µM [°C]: 0.42

Compound: Cc1c(N2C(=O)C3C(O)CCN3C2=O)ccc(C#N)c1Cl (stereo not drawn)
Study Target: AURKA (Homo sapiens)
ΔTm at 20 µM [°C]: -2.25

[Q] Report ΔTm at 20 µM for `Oc1ccc(-c2nc3cc(O)cc(Br)c3o2)cc1`
[A] 0.19

[Q] Report ΔTm at 20 µM for `CC#C[C@]1(O)CC[C@H]2[C@@H]3CCC4=CC(=O)CCC4=C3[C@@H](c3ccc(N(C)C)cc3)C[C@@]21C`
[A] -1.55

[Q] Report ΔTm at 20 µM for C[C@]12CC[C@@H]3c4ccc(O)cc4C[C@@H](CCCCCCCCC[S+]([O-])CCCC(F)(F)C(F)(F)F)[C@H]3[C@@H]1CC[C@@H]2O (stereo partly drawn)
[A] -0.16

[Q] Report ΔTm at 20 µM for CC(=O)O[C@]1(C(C)=O)CC[C@H]2[C@@H]3CCC4=CC(=O)CCC4=C3[C@@H](c3ccc(N(C)C)cc3)C[C@@]21C [Ulipristal acetate]
[A] -1.14

---

# Study Target: GSK3B (Homo sapiens, UniProt P49841)
# Construct: made in house
# Sequence (P49841 whole entry, species assumed): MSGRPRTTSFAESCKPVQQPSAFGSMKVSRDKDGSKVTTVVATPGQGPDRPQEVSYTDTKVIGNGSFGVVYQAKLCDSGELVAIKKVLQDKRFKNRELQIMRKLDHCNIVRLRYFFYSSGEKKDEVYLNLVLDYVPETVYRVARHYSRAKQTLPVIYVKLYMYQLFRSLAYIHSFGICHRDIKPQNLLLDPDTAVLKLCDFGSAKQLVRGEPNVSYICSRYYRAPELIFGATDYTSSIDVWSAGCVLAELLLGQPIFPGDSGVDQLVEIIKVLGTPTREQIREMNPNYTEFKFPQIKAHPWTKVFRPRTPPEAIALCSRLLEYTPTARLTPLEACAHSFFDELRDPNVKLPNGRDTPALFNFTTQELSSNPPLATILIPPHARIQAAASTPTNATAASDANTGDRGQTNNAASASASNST
# Procedure Summary: Liability panel screening by DSF: GSK3B
# Format: binding
# Study Conditions: DSF, 20 µM, n=2; read-out: Mean ΔTM GSK3B
Property Measured: ΔTm at 20 µM (°C)
Answer with a number only, understood to be in °C.

# count of solved cases: 3
Compound: Cc1ccc2c(NC[C@](O)(CC(C)(C)c3cc(F)cc4c3OCC4)C(F)(F)F)cccc2n1
Study Target: GSK3B (Homo sapiens, UniProt P49841)
ΔTm at 20 µM, °C: -0.25
//
Compound: CC(=O)OCC(=O)[C@@]1(O)CC[C@H]2[C@@H]3CCC4=CC(=O)CC[C@]4(C)[C@@]3(F)[C@@H](O)C[C@@]21C [Fludrocortisone acetate]
Study Target: GSK3B (Homo sapiens, UniProt P49841)
ΔTm at 20 µM, °C: -0.61
//
Compound: Oc1ccc(-c2nc3cc(O)cc(Br)c3o2)cc1
Study Target: GSK3B (Homo sapiens, UniProt P49841)
ΔTm at 20 µM, °C: 3.58

[Q] Report ΔTm at 20 µM for `COc1cc(/C=C(\C#N)C(=O)Nc2nnc(C(F)(F)F)s2)ccc1OCc1ccc(C(F)(F)F)cc1C(F)(F)F`
[A] -0.62

[Q] Report ΔTm at 20 µM for CC/C(=C(\c1ccc(O)cc1)c1ccc(OCCN(C)C)cc1)c1ccccc1 [(Z)-4-Hydroxytamoxifen]
[A] -1.45

[Q] Report ΔTm at 20 µM for `N#Cc1ccc(N2N=C3c4ccc(C(=O)O)cc4CC[C@@H]3[C@@H]2C2CCCC2)cc1Cl`
[A] 0

[Q] Report ΔTm at 20 µM for CC(=O)O[C@]1(C(C)=O)CC[C@H]2[C@@H]3C=C(Cl)C4=CC(=O)[C@@H]5C[C@@H]5[C@]4(C)[C@H]3CC[C@@]21C [Cyproterone acetate]
[A] -0.72

[Q] Report ΔTm at 20 µM for N#CC(Cc1ccc(O)cc1)c1ccc(O)cc1 (centres unmarked)
[A] 0.0529

[Q] Report ΔTm at 20 µM for `COc1cccc([C@@H](Oc2ccc3c(cnn3-c3ccc(F)cc3)c2)[C@H](C)NC(=O)C(F)(F)F)c1`
[A] 0.67

[Q] Report ΔTm at 20 µM for `C[C@]12CCC(=O)C=C1CC[C@@H]1[C@@H]2[C@@H](O)C[C@]2(C=O)[C@@H](C(=O)CO)CC[C@@H]12`
[A] -0.23

[Q] Report ΔTm at 20 µM for CCC(=O)O[C@]1(C(=O)SCF)[C@H](C)C[C@H]2[C@@H]3C[C@H](F)C4=CC(=O)C=C[C@]4(C)[C@@]3(F)[C@@H](O)C[C@@]21C [Fluticasone propionate]
[A] -0.55

[Q] Report ΔTm at 20 µM for C[C@]12CC[C@@H]3c4ccc(O)cc4C[C@@H](CCCCCCCCC[S+]([O-])CCCC(F)(F)C(F)(F)F)[C@H]3[C@@H]1CC[C@@H]2O (some centres unmarked)
[A] 0.72

[Q] Report ΔTm at 20 µM for `Oc1ccc(-c2c(-c3ccccc3)nn3c(C(F)(F)F)cc(C(F)(F)F)nc23)cc1`
[A] -0.0558

Just for reference, paper PMC11790914 is where these values come from.
